Data provenance is the MegaScale stability set (Tsuboyama et al. 2023).

B1: HEEH_KT_rd6_3546 (parent)
chain: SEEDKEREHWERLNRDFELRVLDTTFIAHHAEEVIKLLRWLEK

Variants of: B1
MEASUREMENT DESCRIPTION: folding stability dG (cDNA display proteolysis); higher = more stable
CONDITIONS USED: PBS, room temperature
Recorded folding stability dG by entry
Provide only the numeric value, understood in kcal/mol.

Below: 3 variants and their reported folding stability dG.
{"MUTANT NAME": "T25C", "folding stability dG / kcal/mol": 1.75}
{"MUTANT NAME": "I27S", "folding stability dG / kcal/mol": 0.654}
{"MUTANT NAME": "E33C", "folding stability dG / kcal/mol": 2.69}

Lookup: I'd like to know its folding stability dG. The variant in question is "D23V"
Found: 3

Lookup: I'd like to know its folding stability dG. The variant in question is "R39I"
Found: 1.77
